These data points were gathered from patent US10544144B2.

test system: Human Gastric Cancer Cell KATO-3 (FGFR2 Amplification); assay: MTT proliferation inhibition, KATO-3 cells; assay type: cell-based; settings: KATO3, MTT, 72 hours drug exposure, KATO-3 cells, read-out: KATo-3 (FGFR2 amplification) IC50
TEST_READOUT: IC50 (nM)

(I) CCN1CCN(c2ccc(Nc3ncc4c(n3)CCN(c3c(Cl)c(OC)cc(OC)c3Cl)C4)cc2)C(=O)C1
(II) CCN1CCN(c2ccc(Nc3ncc4c(n3)CCN(c3c(Cl)c(OC)cc(OC)c3Cl)C4)cc2)CC1
Input: Kindly identify which of I and II has the larger recorded IC50 value. Your answer should be the label of the entry you select.
Output: II
